Here, each record is paired with measured Classification data.
- MEASUREMENT_TARGET: PDZ protein (GST-PDZ fusion) (Homo sapiens, UniProt O15018)
- Construct: made in house; host or cells: E. coli (DH5alpha, BL21 or JM109)
- Sequence (O15018 whole entry, the tested form may be a part): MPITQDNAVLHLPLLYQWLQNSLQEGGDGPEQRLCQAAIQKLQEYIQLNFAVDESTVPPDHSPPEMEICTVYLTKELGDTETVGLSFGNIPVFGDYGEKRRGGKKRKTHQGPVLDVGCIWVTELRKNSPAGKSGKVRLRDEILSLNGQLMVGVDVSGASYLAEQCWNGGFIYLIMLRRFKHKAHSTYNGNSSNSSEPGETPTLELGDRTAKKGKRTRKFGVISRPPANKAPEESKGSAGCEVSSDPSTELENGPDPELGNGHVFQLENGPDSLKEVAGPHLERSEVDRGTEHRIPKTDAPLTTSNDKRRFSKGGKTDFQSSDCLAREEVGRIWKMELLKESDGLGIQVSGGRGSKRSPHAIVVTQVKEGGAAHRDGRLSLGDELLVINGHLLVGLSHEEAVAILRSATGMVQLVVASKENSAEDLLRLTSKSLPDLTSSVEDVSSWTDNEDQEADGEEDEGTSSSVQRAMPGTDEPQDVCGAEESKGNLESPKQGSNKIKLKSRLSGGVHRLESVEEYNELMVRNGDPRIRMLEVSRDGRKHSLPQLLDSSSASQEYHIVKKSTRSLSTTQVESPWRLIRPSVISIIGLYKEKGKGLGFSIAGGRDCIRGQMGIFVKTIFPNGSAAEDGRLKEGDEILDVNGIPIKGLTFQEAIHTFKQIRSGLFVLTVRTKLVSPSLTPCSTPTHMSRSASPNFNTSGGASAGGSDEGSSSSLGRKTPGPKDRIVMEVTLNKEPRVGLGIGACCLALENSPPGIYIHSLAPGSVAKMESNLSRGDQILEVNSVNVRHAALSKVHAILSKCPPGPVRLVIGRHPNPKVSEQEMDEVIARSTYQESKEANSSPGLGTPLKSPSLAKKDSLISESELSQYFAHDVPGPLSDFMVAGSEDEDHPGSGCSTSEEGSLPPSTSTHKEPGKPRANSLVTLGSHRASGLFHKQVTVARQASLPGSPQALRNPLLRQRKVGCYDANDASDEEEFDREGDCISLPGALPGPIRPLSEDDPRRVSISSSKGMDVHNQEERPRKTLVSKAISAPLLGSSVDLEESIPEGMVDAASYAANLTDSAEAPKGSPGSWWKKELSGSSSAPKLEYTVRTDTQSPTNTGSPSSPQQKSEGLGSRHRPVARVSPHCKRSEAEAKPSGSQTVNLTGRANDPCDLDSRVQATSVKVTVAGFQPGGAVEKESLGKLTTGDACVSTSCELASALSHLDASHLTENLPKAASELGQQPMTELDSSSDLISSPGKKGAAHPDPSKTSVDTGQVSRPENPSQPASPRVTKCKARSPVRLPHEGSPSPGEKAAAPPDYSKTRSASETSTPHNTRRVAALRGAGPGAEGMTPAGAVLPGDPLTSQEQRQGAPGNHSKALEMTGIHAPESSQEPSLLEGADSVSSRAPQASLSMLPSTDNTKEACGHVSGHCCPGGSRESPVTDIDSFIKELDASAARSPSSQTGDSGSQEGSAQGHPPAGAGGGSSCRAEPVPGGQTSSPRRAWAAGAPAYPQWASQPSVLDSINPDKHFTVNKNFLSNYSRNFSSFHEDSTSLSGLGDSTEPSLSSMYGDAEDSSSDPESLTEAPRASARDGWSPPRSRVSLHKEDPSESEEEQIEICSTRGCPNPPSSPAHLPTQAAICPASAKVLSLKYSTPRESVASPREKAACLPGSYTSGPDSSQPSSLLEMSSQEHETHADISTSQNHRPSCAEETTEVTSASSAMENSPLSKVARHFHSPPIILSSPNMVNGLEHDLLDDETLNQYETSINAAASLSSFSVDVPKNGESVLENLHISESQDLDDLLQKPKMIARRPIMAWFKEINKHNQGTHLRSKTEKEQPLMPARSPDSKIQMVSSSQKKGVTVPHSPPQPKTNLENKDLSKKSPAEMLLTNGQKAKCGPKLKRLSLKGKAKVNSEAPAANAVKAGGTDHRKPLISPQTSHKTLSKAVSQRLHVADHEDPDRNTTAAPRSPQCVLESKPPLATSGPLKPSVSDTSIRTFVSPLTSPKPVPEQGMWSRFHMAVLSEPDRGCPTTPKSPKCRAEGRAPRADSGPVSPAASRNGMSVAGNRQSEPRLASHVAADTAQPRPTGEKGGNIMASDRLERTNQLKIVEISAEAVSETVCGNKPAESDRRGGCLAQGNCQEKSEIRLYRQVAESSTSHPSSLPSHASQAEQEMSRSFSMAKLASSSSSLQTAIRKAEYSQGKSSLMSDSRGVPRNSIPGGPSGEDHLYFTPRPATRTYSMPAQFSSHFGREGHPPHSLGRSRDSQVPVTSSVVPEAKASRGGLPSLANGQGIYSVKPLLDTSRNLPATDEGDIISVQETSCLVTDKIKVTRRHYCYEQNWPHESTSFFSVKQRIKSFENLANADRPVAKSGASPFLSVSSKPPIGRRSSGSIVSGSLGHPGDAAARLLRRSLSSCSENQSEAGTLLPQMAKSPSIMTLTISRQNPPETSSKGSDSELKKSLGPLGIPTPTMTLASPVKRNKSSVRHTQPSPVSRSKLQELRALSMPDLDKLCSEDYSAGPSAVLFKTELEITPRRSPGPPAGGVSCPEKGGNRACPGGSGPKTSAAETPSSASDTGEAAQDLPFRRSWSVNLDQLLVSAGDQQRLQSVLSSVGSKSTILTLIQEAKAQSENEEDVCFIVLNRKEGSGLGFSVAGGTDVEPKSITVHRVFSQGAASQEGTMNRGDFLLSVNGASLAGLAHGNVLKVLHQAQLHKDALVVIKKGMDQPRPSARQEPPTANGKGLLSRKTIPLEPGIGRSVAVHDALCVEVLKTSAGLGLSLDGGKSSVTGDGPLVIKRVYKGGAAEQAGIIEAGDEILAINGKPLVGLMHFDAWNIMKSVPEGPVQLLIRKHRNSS
- MEASUREMENT_DESCRIPTION: G' assay (10 uM PL peptide), results of TABLE 7 and TABLE 12
- Type: binding
- SETUP_CONDITIONS: PDZ AIPC, PDZ Domain 1
Ends that are not written are not given here. * marks the point of attachment. Biotin = O=C1N[C@H]2[C@H](CS[C@H]2CCCCC(=O)*)N1

These solved cases illustrate the format of a correct answer.
- LLNVLQRQELGDGLDDEIAV (Biotin-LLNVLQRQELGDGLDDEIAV): 1 (A450 nm 0-1)
- TQGFPGPATWRRISSLESEV: 3 (A450 nm 2-3)
- KTMPAAMFRLLTGQETPLYI (Biotin-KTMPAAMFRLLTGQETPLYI) [MINT-2]: 1 (A450 nm 0-1)
- A2AA_HUMAN (modified) (Biotin-HDFRRAFKKILARGDRKRIV; not fully specified): 2 (A450 nm 1-2)
- ISGTPTSTMVHGMTSSSSVV (Biotin-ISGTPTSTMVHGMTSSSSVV) [Clasp-2]: 1 (A450 nm 0-1)

Supply Classification measured with PDZ protein (GST-PDZ fusion) (Homo sapiens, UniProt O15018) for ACM3_HUMAN (Biotin-QQYQQRQSVIFHKRAPEQAL) . 1 (A450 nm 0-1)

# assay system PDZ protein (GST-PDZ fusion) (Homo sapiens, UniProt O15018): give Classification of ELLQFCRTPNPALKNGQYWV (Biotin-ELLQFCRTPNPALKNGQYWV) 5 (A450 nm of 4 more than 2× repeated)

Fill: Classification (PDZ protein (GST-PDZ fusion) (Homo sapiens, UniProt O15018)) for this substance PYSELNYETSHYPASPDSWV (Biotin-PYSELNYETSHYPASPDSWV) [catenin - delta 2] 2 (A450 nm 1-2)

* * *

- MEASUREMENT_TARGET: PDZ protein (GST-PDZ fusion) (Homo sapiens, UniProt Q96JH8)
- Construct: made in house; host or cells: E. coli (DH5alpha, BL21 or JM109)
- Sequence (Q96JH8 1-1075): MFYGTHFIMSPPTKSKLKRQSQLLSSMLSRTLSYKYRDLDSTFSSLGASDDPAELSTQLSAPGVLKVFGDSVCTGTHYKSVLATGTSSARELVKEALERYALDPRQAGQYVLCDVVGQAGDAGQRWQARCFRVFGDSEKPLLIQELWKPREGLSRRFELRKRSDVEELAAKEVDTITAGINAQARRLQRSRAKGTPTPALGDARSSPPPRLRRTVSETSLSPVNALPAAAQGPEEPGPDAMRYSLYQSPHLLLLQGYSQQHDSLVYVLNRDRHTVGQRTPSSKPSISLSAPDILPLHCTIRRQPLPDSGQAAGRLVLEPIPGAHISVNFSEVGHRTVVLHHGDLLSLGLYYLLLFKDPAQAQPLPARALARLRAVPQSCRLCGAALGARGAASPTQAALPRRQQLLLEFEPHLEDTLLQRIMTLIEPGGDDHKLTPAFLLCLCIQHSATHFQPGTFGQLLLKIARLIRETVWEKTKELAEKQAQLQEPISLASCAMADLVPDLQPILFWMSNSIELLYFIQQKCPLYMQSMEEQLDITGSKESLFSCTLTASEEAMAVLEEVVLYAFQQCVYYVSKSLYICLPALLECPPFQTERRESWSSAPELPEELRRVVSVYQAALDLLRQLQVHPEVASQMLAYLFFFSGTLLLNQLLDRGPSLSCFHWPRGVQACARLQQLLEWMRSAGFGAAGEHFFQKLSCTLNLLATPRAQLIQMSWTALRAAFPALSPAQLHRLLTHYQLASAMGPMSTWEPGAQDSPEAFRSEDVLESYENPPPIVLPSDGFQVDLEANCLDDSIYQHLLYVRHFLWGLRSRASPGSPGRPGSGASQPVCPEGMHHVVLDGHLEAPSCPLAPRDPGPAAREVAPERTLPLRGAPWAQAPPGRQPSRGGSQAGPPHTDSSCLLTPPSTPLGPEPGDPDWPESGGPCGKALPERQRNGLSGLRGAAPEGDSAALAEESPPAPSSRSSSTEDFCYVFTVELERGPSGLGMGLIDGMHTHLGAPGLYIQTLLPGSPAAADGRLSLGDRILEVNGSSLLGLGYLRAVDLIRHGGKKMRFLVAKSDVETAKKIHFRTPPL
- MEASUREMENT_DESCRIPTION: G' assay (10 uM PL peptide), results of TABLE 7 and TABLE 12
- Type: binding
- SETUP_CONDITIONS: PDZ FLJ 10324, PDZ Domain 1
Ends that are not written are not given here. * marks the point of attachment. Biotin = O=C1N[C@H]2[C@H](CS[C@H]2CCCCC(=O)*)N1
Reported Classification by item:

• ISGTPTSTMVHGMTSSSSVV (Biotin-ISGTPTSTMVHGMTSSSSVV) [Clasp-2] = 1 (A450 nm 0-1)
• GPVPGEPAKPKTSAHHATFV (Biotin-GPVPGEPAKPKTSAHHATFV) = 1 (A450 nm 0-1)
• ALVLIAFCIIRRRPSAYQAL (Biotin-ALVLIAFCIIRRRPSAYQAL) [CD68] = 1 (A450 nm 0-1)
• SLKPGTVLPPPPYRHRNTVV (Biotin-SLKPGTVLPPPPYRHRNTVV) [ErbB-4 receptor] = 1 (A450 nm 0-1)
• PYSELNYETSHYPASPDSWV (Biotin-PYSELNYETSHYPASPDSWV) [catenin - delta 2] = 3 (A450 nm 2-3)

Please report Classification for the following substance: LASKSAEEGKQIPDSLSTDL (Biotin-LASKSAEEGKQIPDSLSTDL) [Dock2] 1 (A450 nm 0-1)

Identify Classification associated with the substance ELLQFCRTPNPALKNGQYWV (Biotin-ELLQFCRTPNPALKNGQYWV) 5 (A450 nm of 4 more than 2× repeated)

Quick one: give measured Classification for PPATPSPRLALPAHHNATRL (Biotin-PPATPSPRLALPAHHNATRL) [Na+/Pi cotransporter 2] 1 (A450 nm 0-1)

Report measured Classification; entry is A2AA_HUMAN (modified) (Biotin-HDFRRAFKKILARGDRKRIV; not fully specified) 1 (A450 nm 0-1)

Dear colleague, please send me the reported Classification for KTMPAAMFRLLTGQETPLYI (Biotin-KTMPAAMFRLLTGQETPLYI) [MINT-2] when you can. 4 (A450 nm 3-4)

* * *

Parameter: Classification. Scope: all listed entries.
- MEASUREMENT_TARGET: PDZ protein (GST-PDZ fusion) (Homo sapiens, UniProt Q92796)
- Construct: made in house; host or cells: E. coli (DH5alpha, BL21 or JM109)
- Sequence (Q92796 1-817): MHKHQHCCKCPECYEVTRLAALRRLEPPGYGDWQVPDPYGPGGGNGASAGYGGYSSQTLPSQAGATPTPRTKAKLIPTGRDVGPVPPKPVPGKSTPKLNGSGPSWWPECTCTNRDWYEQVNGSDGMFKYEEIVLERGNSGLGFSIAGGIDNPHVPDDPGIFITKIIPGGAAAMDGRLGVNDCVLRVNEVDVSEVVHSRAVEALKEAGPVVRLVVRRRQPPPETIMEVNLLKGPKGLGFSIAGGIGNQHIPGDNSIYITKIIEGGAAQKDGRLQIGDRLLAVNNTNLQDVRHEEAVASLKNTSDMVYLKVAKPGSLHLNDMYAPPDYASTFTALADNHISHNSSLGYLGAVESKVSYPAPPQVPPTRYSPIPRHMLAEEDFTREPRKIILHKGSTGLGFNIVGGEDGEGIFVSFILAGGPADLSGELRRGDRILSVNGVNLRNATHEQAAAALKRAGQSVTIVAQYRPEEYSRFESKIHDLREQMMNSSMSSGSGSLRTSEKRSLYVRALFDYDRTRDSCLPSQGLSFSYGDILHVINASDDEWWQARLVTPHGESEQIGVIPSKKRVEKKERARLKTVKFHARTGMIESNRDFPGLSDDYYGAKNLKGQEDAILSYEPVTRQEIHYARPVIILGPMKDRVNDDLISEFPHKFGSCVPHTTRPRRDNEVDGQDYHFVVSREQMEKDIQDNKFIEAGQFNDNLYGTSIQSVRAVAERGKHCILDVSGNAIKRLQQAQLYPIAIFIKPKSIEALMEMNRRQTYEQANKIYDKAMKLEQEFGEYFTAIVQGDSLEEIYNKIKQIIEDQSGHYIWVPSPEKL
- MEASUREMENT_DESCRIPTION: G' assay (10 uM PL peptide), results of TABLE 7 and TABLE 12
- Assay type: binding
- SETUP_CONDITIONS: PDZ NeDLG, PDZ Domain 1, 2
Ends that are not written are not given here. * marks the point of attachment. Biotin = O=C1N[C@H]2[C@H](CS[C@H]2CCCCC(=O)*)N1

• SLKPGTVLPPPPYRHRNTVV (Biotin-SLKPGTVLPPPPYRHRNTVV) [ErbB-4 receptor] = 1 (A450 nm 0-1)
• RNIEEVYVGGKQVVPFSSSV (Biotin-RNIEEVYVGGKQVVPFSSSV) [Nedasin (s-form)] = 2 (A450 nm 1-2)
• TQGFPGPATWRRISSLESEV = 5 (A450 nm of 4 more than 2× repeated)
• APC—adenomatous polyposis coli protein (ESSGTQSPKRHSGSYLVTSV) = 4 (A450 nm 3-4)

Find the measured Classification of GGGGGSGGGGGSGIESVKI [GLUR2 (glutamate receptor 2-modified)] and report it. 2 (A450 nm 1-2)

From: patent US20050282743A1
